- system.under.test: CBL-B (Homo sapiens, UniProt Q13191)
- Construct: GST
- Sequence (Q13191 whole entry): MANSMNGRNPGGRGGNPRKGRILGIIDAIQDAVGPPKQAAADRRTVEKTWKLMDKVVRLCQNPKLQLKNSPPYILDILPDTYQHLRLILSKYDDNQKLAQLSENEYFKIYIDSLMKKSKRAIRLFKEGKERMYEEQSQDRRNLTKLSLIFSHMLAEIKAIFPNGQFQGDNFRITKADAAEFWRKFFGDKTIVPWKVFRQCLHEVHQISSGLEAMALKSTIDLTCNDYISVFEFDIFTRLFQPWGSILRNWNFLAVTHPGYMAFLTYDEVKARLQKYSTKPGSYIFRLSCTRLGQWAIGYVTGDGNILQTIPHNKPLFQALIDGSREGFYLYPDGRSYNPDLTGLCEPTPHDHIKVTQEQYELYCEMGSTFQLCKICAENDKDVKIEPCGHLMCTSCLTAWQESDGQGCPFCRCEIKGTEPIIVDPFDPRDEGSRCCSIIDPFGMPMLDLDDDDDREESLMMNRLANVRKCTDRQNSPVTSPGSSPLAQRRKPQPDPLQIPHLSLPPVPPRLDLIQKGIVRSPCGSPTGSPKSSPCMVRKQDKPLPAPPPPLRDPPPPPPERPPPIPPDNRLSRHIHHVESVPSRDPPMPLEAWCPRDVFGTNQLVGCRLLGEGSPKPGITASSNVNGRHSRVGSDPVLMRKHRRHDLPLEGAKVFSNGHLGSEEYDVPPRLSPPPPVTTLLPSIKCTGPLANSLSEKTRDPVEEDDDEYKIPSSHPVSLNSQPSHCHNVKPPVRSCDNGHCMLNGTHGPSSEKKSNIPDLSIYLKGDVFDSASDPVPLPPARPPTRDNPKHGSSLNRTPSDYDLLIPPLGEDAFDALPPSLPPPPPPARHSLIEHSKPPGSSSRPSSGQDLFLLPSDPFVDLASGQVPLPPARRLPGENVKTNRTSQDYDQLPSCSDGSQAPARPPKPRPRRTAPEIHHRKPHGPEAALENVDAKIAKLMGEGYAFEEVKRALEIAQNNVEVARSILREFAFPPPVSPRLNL
- method.description: CBL-B TR-FRET IC50 screening (E1/E2 ubiquitination, Biotin-Ubiquitin, Anti GST-Tb donor / Streptavidin-d2 acceptor)
- Type: biochemical
- condition.context: second part of Table 2 (head 'Patent Cmpd No / Updated Activity'); same CBL-B TR-FRET IC50 bins A-F; read-out: Updated Activity
Measured IC50 of individual entries
quantity: IC50

C[C@@H]1C[C@H](O)CN(Cc2cc(C(F)(F)F)c3cn(-c4cccc([C@H](c5nncn5C)C5CCC5)c4)c(=O)n3c2)C1 (single isomer, unassigned) ... < 0.1 µM
Cn1cnnc1[C@H](c1cc(-c2ccncc2)cc(-n2cc3c(C(F)(F)F)cccn3c2=O)c1)C1CCC1 (single isomer, unassigned) ... > 10 µM
CN1CCCN(Cc2cc(C(F)(F)F)c3cn(-c4cccc([C@H](c5nncn5C)C5CCC5)c4)c(=O)n3c2)C1=O ... < 0.1 µM
CC(=O)N1CC([C@@H](c2cccc(-n3cc4c(C(F)(F)F)cc(CN5CCC[C@H](C)C5)cn4c3=O)c2)c2nncn2C)C1 ... > 10 µM
C[C@H]1CC(=O)NN1Cc1cc(C(F)(F)F)c2cn(-c3cccc([C@H](c4nncn4C)C4CCC4)c3)c(=O)n2c1 (single isomer, unassigned) ... < 0.1 µM
CN1C(=O)CCN1Cc1cc(C(F)(F)F)c2cn(-c3cccc([C@H](c4nncn4C)C4CCC4)c3)c(=O)n2c1 ... < 0.1 µM

###

Measured pIC50 of individual entries
- system.under.test: CBL-B (Homo sapiens)
- Construct: GST
- method.description: CBL-B TR-FRET IC50 screening (E1/E2 ubiquitination, Biotin-Ubiquitin, Anti GST-Tb donor / Streptavidin-d2 acceptor)
- Type: biochemical
- condition.context: second part of Table 2 (head 'Patent Cmpd No / Updated Activity'); same CBL-B TR-FRET IC50 bins A-F; read-out: Updated Activity
pIC50: −log10 of the molar value.
quantity: pIC50

COC1CCN(Cc2cc(C(F)(F)F)c3cn(-c4cccc([C@H](c5nncn5C)C5COC5)c4)c(=O)n3c2)CC1 ... > 7.00
[2H]C([2H])(c1cc(C(F)(F)F)c2cn(-c3cccc(C4(Cc5nncn5C)COC4)c3)c(=O)n2c1)N1CCC[C@H](C)C1 ... > 7.00
COC[C@H]1CCN1Cc1cc(C(F)(F)F)c2cn(-c3cccc([C@H](c4nncn4C)C4CCC4)c3)c(=O)n2c1 ... > 7.00
Cn1cnnc1[C@H](c1cc(-c2nnnn2C)cc(-n2cc3c(C(F)(F)F)cccn3c2=O)c1)C1CCC1 (single isomer, unassigned) ... 6.00 to 6.52
CNC(=O)Cc1cc([C@@H](c2nncn2C)C2CCC2)cc(-n2cc3c(C(F)(F)F)cccn3c2=O)c1 (single isomer, unassigned) ... < 5.00
C[C@H]1CCCN(Cc2cc(C(F)(F)F)c3cn(-c4cccc([C@@H](c5nncn5C)[C@H]5C[C@@H](O)C5)c4)c(=O)n3c2)C1 (single isomer, unassigned) ... < 5.00
COCC[C@H](c1cccc(-n2cc3c(C(F)(F)F)cc(CN4CCC[C@H](C)C4)cn3c2=O)c1)c1nncn1C (single isomer, unassigned) ... > 7.00
